ASSAY COMMENT: LTEA_HepaRG_LDH_cytotoxicity: Cytotoxicity Assessment in the Life Technologies and Expression Analysis (LTEA) Assay (AID 2283563)
Active and inactive are the calls of the source. The calls were made as follows: active = hit-call score of the fitted dose curve at least 0.9, where 1 is the maximum; inconclusive = response in the unintended direction; inactive = score below 0.9.
Just give me one of these, please: Y for active, N for inactive

Asked: Called result for CCCCCCC(=O)O
Given back: N

Asked: Called result for Oc1cccc(O)c1
Given back: N

Asked: Called result for CC[C@H](c1ccc(O)cc1)[C@@H](CC)c1ccc(O)cc1
Given back: Y

Asked: Called result for N#C[C@@H]1CC(F)(F)CN1C(=O)CNC1CC2CCC(C1)N2c1ncccn1 (stereo partly drawn)
Given back: N

Asked: Called result for CCN(CC)CCNc1ccc(CNC=O)c2sc3ccc(OC)cc3c(=O)c12
Given back: Y

Asked: Called result for CN1CCC[C@H]1c1cccnc1
Given back: N

Asked: Called result for CCCCCCCCCCCCN1CCCC1=O
Given back: N

Asked: Called result for COC(=O)CCCCC(=O)OC
Given back: N

====

ASSAY COMMENT: BSK_4H_SRB: Viability Assessment in the BioMAP Diversity Plus: 4H Assay (AID 2283027);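 also: cells exposed to compound for 24 h before staining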
DETAILS: primary human endothelial cells (HUVEC)
Active and inactive are the calls of the source. How the source made its calls: active means hit-call score of the fitted dose curve at least 0.9, where 1 is the maximum; inactive means score below 0.9.
Just give me one of these, please: active, inactive

Asked: Called result for Oc1cc2ccccc2c2ccccc12
Given back: active

Asked: Called result for CC(C)(C)c1ccc(O)c(C(C)(C)C)c1
Given back: active

Asked: Called result for COC(=O)CCCCC(=O)OC
Given back: inactive

Asked: Called result for CCCCCCCCCCCCN1CCCC1=O
Given back: active

Asked: Called result for Cc1cc(CCN2CCN(c3nsc4ccccc34)CC2)cc2c1NC(=O)CC2(C)C
Given back: active

Asked: Called result for CC(C)(C)CC(C)(C)c1ccc(O)c(-n2nc3ccccc3n2)c1
Given back: inactive

Asked: Called result for CC[C@H](c1ccc(O)cc1)[C@@H](CC)c1ccc(O)cc1
Given back: active

Asked: Called result for CCCCC(CC)COC(=O)CCCCC(=O)OCc1ccccc1 (stereo not given)
Given back: inactive

Asked: Called result for CCc1nn(C2CCCCC2)c2cc(C3(C#N)CCC(C(=O)O)CC3)ccc12 (stereo not given)
Given back: active

Asked: Called result for O=c1c(-c2ccc(O)cc2)coc2cc(O)ccc12
Given back: inactive

Asked: Called result for CCCCOCCO
Given back: inactive

Asked: Called result for c1ccc2c(c1)ccc1ccccc12
Given back: inactive

Asked: Called result for CCCCCCCC(=O)O
Given back: inactive

Asked: Called result for CCCCCCCCCCCCCC[N+](C)(C)C
Given back: active

Asked: Called result for c1ccc2cc3c(ccc4ccccc43)cc2c1
Given back: inactive

Asked: Called result for O=C(O)Cc1cc(I)c(Oc2cc(I)c(O)c(I)c2)c(I)c1
Given back: inactive

Asked: Called result for CCN(CC)CCNc1ccc(CNC=O)c2sc3ccc(OC)cc3c(=O)c12
Given back: active

Asked: Called result for CC(C)CCCCCCOC(=O)CCCCC(=O)OCCCCCCC(C)C
Given back: inactive

Asked: Called result for CCC(=C(c1ccc(O)cc1)c1ccc(OCCN(C)C)cc1)c1ccccc1
Given back: active

Asked: Called result for CC1=C(/C=C/C(C)=C/C=C/C(C)=C/C(=O)O)C(C)(C)CCC1
Given back: inactive

Asked: Called result for CN1CCC[C@H]1c1cccnc1
Given back: inactive

Asked: Called result for CCCOC(=O)c1ccc(O)cc1
Given back: inactive

Asked: Called result for CC(C)(C)c1cc(C(C)(C)C)c(O)c(C(C)(C)C)c1
Given back: inactive

Asked: Called result for OC1CCCCC1
Given back: inactive

Asked: Called result for OCCC(F)(F)C(F)(F)C(F)(F)C(F)(F)C(F)(F)C(F)(F)F
Given back: inactive

Cited source for all entries: PubChem BioAssay (EPA / NIEHS)
